The measurements presented in this section are drawn from PubChem BioAssay (Tox21).

test: qHTS assay to identify small molecule antagonists of the sonic hedgehog signaling (Shh) pathway - cell viability counter screen (AID 1259367); conditions: NIH/3T3 Gli1-Luc viability, CellTiter-Fluor, 24 h; series mostly up to 92.4 µM; further: nearly all actives have a fitted effect of over 55% in size
Results filed as inconclusive are left out. Activity calls are given as the source filed them. The call rests on the fitted dose curve; in most records, active means well fitted cell-killing curve with a large enough effect in the repeat runs; inconclusive means weak or mixed curves, or effect the other way; inactive means no such curve, though single readings can be large or run the other way.
PROPERTY_LABEL: viability change, negative = cytotoxic

COMPOUND	viability change, negative = cytotoxic
NC(CO)C(=O)NNCc1ccc(O)c(O)c1O (stereo not given)	inactive
COc1cc(N)ccc1C	inactive
C[Si](C)(C)C	inactive
CCCCOC(=O)c1ccccc1	inactive
Nc1ccc(S(=O)(=O)Nc2ccc(Cl)nn2)cc1	inactive

Given the entry Cc1ccc(C=O)cc1C , report its measured viability change, negative = cytotoxic. inactive

Next record, please: BrCCCCCBr inactive

Next record, please: CC(C)C[C@H](NC(=O)CNC(=O)[C@H](Cc1ccc(O)cc1)NC(=O)[C@H](CO)NC(=O)[C@H](Cc1c[nH]c2ccccc12)NC(=O)[C@H](Cc1cnc[nH]1)NC(=O)[C@@H]1CCC(=O)N1)C(=O)N[C@@H](CCCN=C(N)N)C(=O)N1CCC[C@H]1C(=O)NCC(N)=O (stereo in doubt) inactive

Next record, please: CC(C)CCCCOC(=O)c1ccccc1C(=O)OCCCCC(C)C inactive

Next record, please: CC(=C(CCOC(=O)C(C)C)SSC(CCOC(=O)C(C)C)=C(C)N(C=O)Cc1cnc(C)nc1N)N(C=O)Cc1cnc(C)nc1N inactive
